system: NCI-H1355; assay: relative viability (nuclei count vs DMSO), 5 days (fraction); higher = more cells survive; details: first compound 8 µM
Please provide measured relative viability for the entries that follow.
No unit in the answer, please; the number alone is enough.

Problem: # query: relative viability of entry O=c1cc(-c2cccc3c2Sc2ccccc2S3)oc(N2CCOCC2)c1 + CC(=O)c1c(C)c2cnc(Nc3ccc(N4CCNCC4)cn3)nc2n(C2CCCC2)c1=O [Palbociclib] (partner 0.5 µM)
Solution: 0.264

Problem: # query: relative viability of entry O=c1cc(-c2cccc3c2Sc2ccccc2S3)oc(N2CCOCC2)c1 + COc1cc2c(Oc3ccc(NC(=O)C4(C(=O)Nc5ccc(F)cc5)CC4)cc3F)ccnc2cc1OCCCN1CCOCC1 [Foretinib] (partner 0.25 µM)
Solution: 0.926

Problem: # query: relative viability of entry O=c1cc(-c2cccc3c2Sc2ccccc2S3)oc(N2CCOCC2)c1 + CS(=O)(=O)CCNCc1ccc(-c2ccc3ncnc(Nc4ccc(OCc5cccc(F)c5)c(Cl)c4)c3c2)o1 [Lapatinib] (partner 2 µM)
Solution: 1.05

Problem: # query: relative viability of entry O=c1cc(-c2cccc3c2Sc2ccccc2S3)oc(N2CCOCC2)c1 + CCNC(=O)c1noc(-c2cc(C(C)C)c(O)cc2O)c1-c1ccc(CN2CCOCC2)cc1 [Luminespib] (partner 0.01 µM)
Solution: 0.605

Problem: # query: relative viability of entry O=c1cc(-c2cccc3c2Sc2ccccc2S3)oc(N2CCOCC2)c1 + Nc1ncn([C@H]2C[C@H](O)[C@@H](CO)O2)c(=O)n1 [Decitabine] (partner 2 µM)
Solution: 0.331

Problem: # query: relative viability of entry O=c1cc(-c2cccc3c2Sc2ccccc2S3)oc(N2CCOCC2)c1 + Cc1nc(Nc2ncc(C(=O)Nc3c(C)cccc3Cl)s2)cc(N2CCN(CCO)CC2)n1 [Dasatinib] (partner 0.075 µM)
Solution: 0.694

The measured values listed here are drawn from the supplement of paper PMC10307832.
